Source of measurements: PubChem BioAssay (NCI)

assay: NCI Yeast Anticancer Drug Screen. Data for the rad50 strain (AID 155);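 note: 0% = growth of vehicle-only cultures of the same strain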; details: S. cerevisiae rad50 strain growth inhibition; at 50.0 µM; stronger effect = higher value
The panel holds about 79,000 compounds, 15% with a hit somewhere; the sample as a whole holds those more often.
I'd be grateful if you could share measured growth inhibition for these entries.
One number for each entry, in %.

Answered examples (2):
molecule	unit name	growth inhibition
Cc1cc(N=Nc2ccncc2C)ccc1N	%	92.5
CCCN(CCC)c1ccc(/C=C/c2ccnc3ccccc23)cc1	%	91.2

Look at each molecule and report its growth inhibition.
1. S=c1[nH]c2ccc(Br)cc2c(=S)n1-c1ccccc1
2. COc1cccc2c1C(=O)c1c(O)c3c(c(O)c1C2=O)C[C@@](O)(C(C)=O)C[C@@H]3OC1CC(N(CCO)Cc2ccccc2)C(O)C(C)O1 (some centres not stated)
3. C1CCC(CC2CCC(NC3=NCCO3)CC2)CC1 (configuration not stated)

90.5
91.2
88.6

Look at each molecule and report its growth inhibition.
1. O=C(O)c1ccccc1SC(Sc1ccccc1C(=O)O)c1cccc(Cl)c1
2. O=C1c2cc([N+](=O)[O-])ccc2-c2cc([N+](=O)[O-])ccc21

1: 88; 2: 91.2
